I'd be grateful if you could share measured Ratio IC50 for these entries.
Experiment: Resistance index, ratio of IC50 for human KBV1 cells to IC50 for human KB cells
Format: functional

Q. For the compound "CC(=O)O[C@H]1C(=O)[C@@]2(C)[C@H]([C@H](OC(=O)c3ccccc3)[C@]3(O)C[C@H](OC(=O)[C@H](O)[C@@H](NC(=O)c4ccccc4)c4ccccc4)C(C)=C1C3(C)C)[C@]1(OC(C)=O)CO[C@@H]1C[C@@H]2O" , what Ratio IC50 is on record?
A. 5157

Q. Same question, "COc1cccc(C(=O)O[C@H]2[C@H]([C@]3(OC(C)=O)CO[C@@H]3CCO)/C(C)=C(/O)C(=O)C3=C(C)[C@@H](OC(=O)[C@H](O)[C@H](CC(C)C)NC(=O)OC(C)(C)C)C[C@]2(O)C3(C)C)c1" this time
A. 1172

Q. Let us now turn to "CC(=O)O[C@@]1([C@@H]2/C(C)=C(/O)C(=O)C3=C(C)[C@@H](OC(=O)[C@H](O)[C@@H](NC(=O)c4ccccc4)c4ccccc4)C[C@@](O)([C@H]2OC(=O)c2cccc(N=[N+]=[N-])c2)C3(C)C)CO[C@@H]1CCO"
A. 1000

Q. Would you mind doing "CC(=O)O[C@@]1([C@@H]2/C(C)=C(/O)C(=O)C3=C(C)[C@@H](OC(=O)[C@H](O)[C@H](CC(C)C)NC(=O)OC(C)(C)C)C[C@@](O)([C@H]2OC(=O)c2ccccc2)C3(C)C)CO[C@@H]1CCO" as well?
A. 38.7

Q. Record: "CC(=O)O[C@@]1([C@@H]2/C(C)=C(/O)C(=O)C3=C(C)[C@@H](OC(=O)[C@H](O)[C@H](CC(C)C)NC(=O)OC(C)(C)C)C[C@@](O)([C@H]2OC(=O)c2cccc(N=[N+]=[N-])c2)C3(C)C)CO[C@@H]1CCO"
A. 97

Q. And what about the compound "CC(=O)O[C@@]12CO[C@@H]1CCOC/C=C/CO/C1=C(\C)[C@@H]2[C@H](OC(=O)c2cccc(N=[N+]=[N-])c2)[C@]2(O)C[C@H](OC(=O)[C@H](O)[C@@H](NC(=O)c3ccccc3)c3ccccc3)C(C)=C(C1=O)C2(C)C" ?
A. 6.2
